Tested on: HBV
test protocol: Anti-HBV activity, intracellular HBV DNA by real-time PCR (HBV-AVE-HepG2.117)
Assay type: cell-based, Hepatitis B virus
experimental context: Hepatitis B virus, HepG2.117, 72 h, HepG2.117 cell line, 3 days of treatment, intracellular HBV DNA, mean value; read-out: HBV-AVE-HepG2.117 EC50 (μM; mean value)
outcome measure: EC50 (µM)

INSERT INTO assay_data (compound, outcome_measure, result_units, test_result) VALUES
  ('Cc1cc(NC(=O)[C@H]2CCN(C(=O)C(=O)NC3(c4c[nH]nn4)CC(F)(F)C3)[C@H]2C)cc(Cl)c1F [C24]', 'EC50', 'µM', 0.012),
  ('C[C@H]1[C@@H](C(=O)Nc2ccc(Cl)c(Cl)c2)CCN1C(=O)C(=O)NC1(c2c[nH]nn2)CC(F)(F)C1 [C15]', 'EC50', 'µM', 0.014),
  ('C[C@H]1[C@@H](C(=O)Nc2cc(F)c(F)c(F)c2)CCN1C(=O)C(=O)N[C@@](C)(CC(F)F)c1c[nH]nn1 (single isomer, unassigned) [C33S*]', 'EC50', 'µM', 0.04),
  ('C[C@H]1[C@@H](C(=O)Nc2ccc(F)c(Cl)c2F)CCN1C(=O)C(=O)N[C@H](CC(F)(F)F)c1c[nH]nn1 (single isomer, unassigned) [C37R*]', 'EC50', 'µM', 0.014),
  ('C[C@H]1[C@@H](C(=O)Nc2ccc(F)c(C#N)c2)CCN1C(=O)C(=O)N[C@H](CC(F)(F)F)c1c[nH]nn1 (single isomer, unassigned) [C28R*]', 'EC50', 'µM', 0.032),
  ('C[C@H]1[C@@H](C(=O)Nc2ccc(F)c(Cl)c2)CCN1C(=O)C(=O)NC1(c2c[nH]nn2)CC(F)(F)C1 [C20]', 'EC50', 'µM', 0.012);

====

Tested on: HBV
test protocol: Anti-HBV activity, intracellular HBV DNA by real-time PCR (HBV-AVE-HepG2.117)
Format: cell-based, Hepatitis B virus
experimental context: Hepatitis B virus, HepG2.117, 72 h, HepG2.117 cell line, 3 days of treatment, intracellular HBV DNA, mean value; read-out: HBV-AVE-HepG2.117 EC50 (μM; mean value)
Consider the following molecules and their measured EC50 readings.
outcome measure: EC50 (µM)

INSERT INTO assay_data (molecule, result_units, test_result) VALUES
  ('Cc1cc(NC(=O)[C@H]2CCN(C(=O)C(=O)NC3(c4c[nH]nn4)CC(F)(F)C3)C2)ccc1F', 'µM', 0.079),
  ('O=C(NC1(c2c[nH]nn2)CC(F)(F)C1)C(=O)N1CC[C@H](C(=O)Nc2ccnc(Cl)c2)C1', 'µM', 1.5),
  ('C[C@H]1[C@@H](C(=O)Nc2ccc(F)c(F)c2F)CCN1C(=O)C(=O)NC1(c2c[nH]nn2)CC(F)(F)C1', 'µM', 0.026),
  ('O=C(NC1(c2c[nH]nn2)CC(F)(F)C1)C(=O)N1CC[C@H](C(=O)Nc2cc(F)c(F)c(Cl)c2)C1', 'µM', 0.045),
  ('C[C@H]1[C@@H](C(=O)Nc2cc(F)c(F)c(Cl)c2)CCN1C(=O)C(=O)NC1(c2c[nH]nn2)CC(F)(F)C1', 'µM', 0.006),
  ('C[C@H]1[C@@H](C(=O)Nc2ccc(F)c(C(F)F)c2F)CCN1C(=O)C(=O)N[C@@H](CC(F)(F)F)c1c[nH]nn1 (single isomer, unassigned) [C31S*]', 'µM', 0.056),
  ('C[C@H]1C[C@H](C(=O)Nc2cc(F)c(F)c(F)c2)[C@H](C)N1C(=O)C(=O)NC1(c2c[nH]nn2)CC(F)(F)C1', 'µM', 0.011),
  ('C[C@H]1[C@@H](C(=O)Nc2ccc(F)c(C#N)c2)CCN1C(=O)C(=O)N[C@@H](CC(F)(F)F)c1c[nH]nn1 (single isomer, unassigned) [C28S*]', 'µM', 0.07),
  ('N#Cc1cc(NC(=O)[C@H]2CCN(C(=O)C(=O)NC3(c4c[nH]nn4)CC(F)(F)C3)C2)ccc1F', 'µM', 0.15),
  ('C[C@H]1[C@@H](C(=O)Nc2ccc(F)c(C(F)F)c2F)CCN1C(=O)C(=O)NC1(c2c[nH]nn2)CC(F)(F)C1', 'µM', 0.019),
  ('Cc1cc(NC(=O)[C@H]2CCN(C(=O)C(=O)NC3(c4c[nH]nn4)CC(F)(F)C3)[C@H]2C)cc(F)c1F', 'µM', 0.012),
  ('C[C@H]1[C@@H](C(=O)Nc2ccc(Cl)c(Cl)c2)CCN1C(=O)C(=O)N[C@H](CC(F)(F)F)c1c[nH]nn1 (single isomer, unassigned) [C25R*]', 'µM', 0.017),
  ('C[C@H]1[C@@H](C(=O)Nc2ccc(F)c(C(F)(F)F)c2)CCN1C(=O)C(=O)N[C@@H](CC(F)(F)F)c1c[nH]nn1 (single isomer, unassigned) [C30S*]', 'µM', 0.06);

====

Tested on: HBV
test protocol: Anti-HBV activity, intracellular HBV DNA by real-time PCR (HBV-AVE-HepG2.117)
Type: cell-based, Hepatitis B virus
experimental context: Hepatitis B virus, HepG2.117, 72 h, HepG2.117 cell line, 3 days of treatment, intracellular HBV DNA, mean value; read-out: HBV-AVE-HepG2.117 EC50 (μM; mean value)
outcome measure: log10 EC50 (log10 of the value in µM)

INSERT INTO results (compound, test_result) VALUES
  ('C[C@H]1[C@@H](C(=O)Nc2cc(F)c(F)c(F)c2)CCN1C(=O)C(=O)NC1(c2nn[nH]c2Cl)CC(F)(F)C1 [C26]', -0.75),
  ('Cc1[nH]nnc1C1(NC(=O)C(=O)N2CC[C@H](C(=O)Nc3cc(F)c(F)c(F)c3)[C@@H]2C)CC(F)(F)C1 [C38]', -1.92),
  ('C[C@H]1[C@@H](C(=O)Nc2cc(F)c(F)c(F)c2)CCN1C(=O)C(=O)N[C@]1(c2c[nH]nn2)C[C@@H](C(F)F)C1 [C39t]', -1.48),
  ('C[C@H]1[C@@H](C(=O)Nc2ccc(F)c(Cl)c2)CCN1C(=O)C(=O)N[C@@H](CC(F)(F)F)c1c[nH]nn1 (single isomer, unassigned) [C34S*]', -1.46),
  ('C[C@H]1[C@@H](C(=O)Nc2cc(F)c(F)c(F)c2)CCN1C(=O)C(=O)N[C@](C)(CC(F)F)c1c[nH]nn1 (single isomer, unassigned) [C33R*]', -1.47),
  ('C[C@H]1C[C@H](C(=O)Nc2cc(F)c(F)c(F)c2)CN1C(=O)C(=O)NC1(c2c[nH]nn2)CC(F)(F)C1 [C19]', -1.72),
  ('C[C@H]1[C@@H](C(=O)Nc2cc(F)c(F)c(Cl)c2)CCN1C(=O)C(=O)N[C@@H](CC(F)(F)F)c1c[nH]nn1 (single isomer, unassigned) [C32S*]', -1.51),
  ('C[C@H]1[C@@H](C(=O)Nc2ccc(F)c(Cl)c2F)CCN1C(=O)C(=O)N[C@@H](CC(F)(F)F)c1c[nH]nn1 (single isomer, unassigned) [C37S*]', -1.37),
  ('C[C@H]1[C@@H](C(=O)Nc2cc(F)c(F)c(F)c2)CCN1C(=O)C(=O)N[C@@H](CC(F)(F)F)c1c[nH]nn1 (single isomer, unassigned) [C29S*]', -1.38),
  ('C[C@H]1CN(C(=O)C(=O)NC2(c3c[nH]nn3)CC(F)(F)C2)C[C@H]1C(=O)Nc1cc(F)c(F)c(F)c1 [C10]', -0.24),
  ('C[C@H]1[C@@H](C(=O)Nc2cc(F)c(F)c(F)c2)CCN1C(=O)C(=O)N[C@]1(c2c[nH]nn2)C[C@H](C(F)F)C1 [C39c]', -1.21),
  ('O=C(NC1(c2c[nH]nn2)CC(F)(F)C1)C(=O)N1CC[C@H](C(=O)Nc2ccnc(C(F)F)c2)C1 [C12]', 0.11),
  ('C[C@H]1C[C@H](C(=O)Nc2ccc(F)c(C#N)c2)CN1C(=O)C(=O)NC1(c2c[nH]nn2)CC(F)(F)C1 [C13]', -1.21);

====

test protocol: Cytotoxicity, ATPlite cell viability (TOX-HepG2.117)
Assay type: cell-based, human
experimental context: human; HepG2.117 cells, incubated for 3 days, ATPlite, mean value
Method: Cytotoxicity of the compounds was tested using HepG2 or HepG2.117 cells, incubated for 3 days in the presence of compounds. The viability of the cells was assessed using the Perkin Elmer ATPlite Luminescence Assay System.”
outcome measure: CC50 at 3 days

INSERT INTO assay_data (sample_smiles, outcome_measure, test_result) VALUES
  ('O=C(NC1(c2c[nH]nn2)CC(F)(F)C1)C(=O)N1CC[C@H](C(=O)Nc2ccc(F)c(Cl)c2)C1', 'CC50 at 3 days', '> 50 µM'),
  ('O=C(NC1(c2c[nH]nn2)CC(F)(F)C1)C(=O)N1CC[C@H](C(=O)Nc2cc(F)c(F)c(F)c2)C1', 'CC50 at 3 days', '> 50 µM'),
  ('Cc1cc(NC(=O)[C@H]2CCN(C(=O)C(=O)NC3(c4c[nH]nn4)CC(F)(F)C3)C2)ccc1F', 'CC50 at 3 days', '> 50 µM'),
  ('Cc1cc(NC(=O)[C@H]2CCN(C(=O)C(=O)NC3(c4c[nH]nn4)CC(F)(F)C3)[C@H]2C)cc(Cl)c1F', 'CC50 at 3 days', '> 50 µM');
